Molecular target: bovine pancreatic trypsin (Bos taurus)
Sequence (P00760 24-246): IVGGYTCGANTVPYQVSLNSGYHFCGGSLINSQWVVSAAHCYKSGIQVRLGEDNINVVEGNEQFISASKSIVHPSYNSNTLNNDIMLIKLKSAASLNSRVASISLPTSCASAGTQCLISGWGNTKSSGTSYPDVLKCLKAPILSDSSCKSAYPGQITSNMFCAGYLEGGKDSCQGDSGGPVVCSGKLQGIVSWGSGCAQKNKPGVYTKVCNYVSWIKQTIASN
observable: Ki (nM)
Note: unit nM is implicit; provide only the numeric part.

Kindly note the recorded Ki for N=C(N)N1CC=C(CCNC(=O)[C@@H]2C[C@@H]3CC[C@@H](O)C[C@@H]3N2C(=O)[C@@H](Cc2ccccc2)NC(=O)[C@H](O)Cc2ccccc2)C1 , which is 100
